# Tested on: HEK-293T
# test-name: Multiplex assay against HEK293T
# Type: toxicity, cell-based
# setup-conditions: human, 24 h, 1 µM, compound concentration 1 uM, replicate 2
# Population Membrane Permeable-Phenotype (%) listing for each entry below
Field: numeric (%). Do not append units.

| structure-smiles | unit-name | value-measured |
| --- | --- | --- |
| Cc1c(-c2ccc(O)cc2)n(Cc2ccc(OCCN3CCCCCC3)cc2)c2ccc(O)cc12 | % | 9 |
| Cc1nc(-c2ccc(-c3ccc(C(=O)N4CCc5cc6c(cc54)C4(CCN(C)CC4)CO6)cc3)c(C)c2)no1 | % | 5 |
| CN(C)CC#Cc1ccc(OCCCc2sc(N3CCc4cccc(C(=O)Nc5nc6ccccc6s5)c4C3)nc2C(=O)O)c(F)c1 | % | 17 |

Asked: I'm curious: which Population Membrane Permeable-Phenotype (%) was measured for `CN(C)C(=O)/C(C#N)=C/c1ccc(-c2nc3cnc4[nH]ccc4c3n2C2CCCCC2)o1` tested on HEK-293T?
Given back: 10

====

# Test system: Fibroblast
# test-name: Multiplex assay against human fibroblast
# Format: toxicity, cell-based
# setup-conditions: 12 h, 1 µM, compound concentration 1 uM, replicate 2
value-type: Population Hoechst High Intensity Objects (%)
Form entry: value (%) — number only.

Illustrative cases are given below, each with its answer.
| molecule | value-measured |
| --- | --- |
| CC[C@H](C)C(=O)O[C@H]1C[C@@H](C)C=C2C=C[C@H](C)[C@H](CC[C@@H]3C[C@@H](O)CC(=O)O3)[C@H]21 | 11 |
| C[C@@]1(C(=O)Nc2ccc(F)nc2)CCCN1c1nc(Nc2cc(C3CC3)n[nH]2)c2cccn2n1 | 28 |
| Cc1[nH]c(/C=C2\C(=O)Nc3ccc(S(=O)(=O)N(C)c4cccc(Cl)c4)cc32)c(C)c1C(=O)N1CCN(C)CC1 | 12 |

# context switch: different molecule, same Population Hoechst High Intensity Objects (%)
Asked: # get_value(readout='Population Hoechst High Intensity Objects (%)', item= C[C@@H](NCCCc1cccc(C(F)(F)F)c1)c1cccc2ccccc12.Cl [CINACALCET HYDROCHLORIDE] )
Given back: 9

====

Some compounds, each annotated with its measured Total Cell Count.
# Test system: U2OS
# test-name: Multiplex assay against U2OS
# Assay type: toxicity, cell-based
# setup-conditions: human, 24 h, 10 µM, compound concentration 10 uM, replicate 1

| compound | Total Cell Count |
| --- | --- |
| Cc1nc(Nc2n[nH]c3c2CN(C(=O)N[C@H](CN(C)C)c2ccccc2)C3(C)C)c2sccc2n1 [PF-03758309] | 202 |
| Cc1csc2c(N[C@@H](C)CN3CCN(S(=O)(=O)c4ccc(Cl)c(Cl)c4)CC3)ncnc12 | 119 |
| CN(C)C(=O)/C(C#N)=C/c1ccc(-c2nc3cnc4[nH]ccc4c3n2C2CCCCC2)o1 | 196 |

Asked: Suppose we examine the compound `Cn1cc(-c2[nH]c3cc(NC(=O)[C@H](N)C4CCCCC4)cc4c3c2C=NNC4=O)cn1` ; what Total Cell Count value has been reported?
Given back: 293

====

# Test system: U2OS
# test-name: Multiplex assay against U2OS
# Format: toxicity, cell-based
# setup-conditions: human, 24 h, 1 µM, compound concentration 1 uM, replicate 2
Label Not met if Population Apoptotic (%) falls below 40%; label Met in every other case.

// known answers, use as guide
| compound | category-label |
| --- | --- |
| Cc1nc(Nc2n[nH]c3c2CN(C(=O)N[C@H](CN(C)C)c2ccccc2)C3(C)C)c2sccc2n1 | Not met |
| c1cn2cc(-c3ccc4cn[nH]c4c3)nc(Nc3ccc(N4CCOCC4)cc3)c2n1 | Not met |
| NC(=O)Nc1cc(-c2cccc(F)c2)sc1C(=O)N[C@H]1CCCNC1 | Not met |
| COc1cccc([C@@H](C)NCCCc2ccccc2Cl)c1.Cl [TECALCET HYDROCHLORIDE] | Met |
| Cc1cc(C)cc(-c2cnc3cc(Cl)c(-c4cccc(O)c4)cc3c2OCCCN)c1 | Met |
| CN(C)C(=O)/C(C#N)=C/c1ccc(-c2nc3cnc4[nH]ccc4c3n2C2CCCCC2)o1 | Met |
| COc1cc(-n2cnc3cc(-c4ccc(Cl)cc4)sc3c2=O)ccc1OCCN1CCCC1 | Met |
| Cc1[nH]c(/C=C2\C(=O)Nc3ccc(S(=O)(=O)N(C)c4cccc(Cl)c4)cc32)c(C)c1C(=O)N1CCN(C)CC1 | Met |

Asked: hey, is Population Apoptotic (%) for this one >= 40%? `CNc1nc(NCc2ccc(NS(C)(=O)=O)cc2Cl)cc(-c2ccccn2)n1`
Given back: Not met

Asked: Next compound up: `C=CC(=O)Nc1cccc(C(=O)Nc2ccc(Nc3cc(-c4[nH]c(SC)nc4C)ccn3)cc2)c1`
Given back: Not met

====

# System: HEK-293T
# test-name: Incucyte cell viability with HEK293T; further: filed as whole numbers so only -1 and 0 and 1 occur
# Format: toxicity, cell-based
# setup-conditions: human, 6 h, 10 µM, compound concentration 10 uM, replicate number 1, timepoint 6 hours
Recorded Growth Rate for the following compounds

Record excerpt, results attached:
| structure-smiles | Growth Rate |
| --- | --- |
| CN([C@@H]1CCc2c(CC(=O)O)c3ccccc3n2C1)S(=O)(=O)c1ccc(F)cc1 | 0 |
| CCn1cc(-c2cccc(C(F)(F)F)c2)c2sc(C(=N)NC3CCS(=O)(=O)CC3)cc2c1=O | 0 |
| O=C(Nc1cnc(Oc2ccc(F)cc2)nc1)N1CCc2ncccc2[C@@H]1c1ccc(F)cc1 | 0 |
| Clc1cccc(-c2nnnn2Cc2cccnc2)c1Cl | 1 |

Asked: Could you share what Growth Rate was measured for `COc1ccc(CNC(=O)c2cc(-c3cncc(Cl)c3)cnc2-c2ccccn2)nc1OC` , tested on HEK-293T?
Given back: 0

====

# Test system: U2OS
# test-name: Multiplex assay against U2OS
# Assay type: toxicity, cell-based
# setup-conditions: human, 24 h, 1 µM, compound concentration 1 uM, replicate 1
Population Hoechst High Intensity Objects (%): recorded values
Please reply with the bare figure in % and do not write the unit itself.

| compound | system | unit-name | value-measured |
| --- | --- | --- | --- |
| CN(C)CC#Cc1ccc(OCCCc2sc(N3CCc4cccc(C(=O)Nc5nc6ccccc6s5)c4C3)nc2C(=O)O)c(F)c1 [A-1155463] | U2OS | % | 5 |

Asked: Item under review: `Cc1csc2c(N[C@@H](C)CN3CCN(S(=O)(=O)c4ccc(Cl)c(Cl)c4)CC3)ncnc12` . Reported Population Hoechst High Intensity Objects (%)?
Given back: 8

Asked: Could you do the same for COc1ncc(-c2ccc3nccc(-c4ccnnc4)c3c2)cc1NS(=O)(=O)c1ccc(F)cc1F [OMIPALISIB] , please?
Given back: 9

Asked: What would you report for `Cc1cc(C)cc(-c2cnc3cc(Cl)c(-c4cccc(O)c4)cc3c2OCCCN)c1` ?
Given back: 5

====

# Tested on: U2OS
# test-name: Multiplex assay against U2OS
# Type: toxicity, cell-based
# setup-conditions: human, 24 h, 1 µM, compound concentration 1 uM, replicate 1
value-type: Total Cell Count
The response must contain the number and no unit.

// worked examples, Total Cell Count included
| compound | system | Total Cell Count |
| --- | --- | --- |
| CN(C)C(=O)N[C@H]1CC[C@H](CCN2CCN(c3cccc(Cl)c3Cl)CC2)CC1.Cl [CARIPRAZINE HYDROCHLORIDE] | U2OS | 102 |
| c1cn2cc(-c3ccc4cn[nH]c4c3)nc(Nc3ccc(N4CCOCC4)cc3)c2n1 | U2OS | 182 |
| C=CC(=O)Nc1cccc(C(=O)Nc2ccc(Nc3cc(-c4[nH]c(SC)nc4C)ccn3)cc2)c1 | U2OS | 278 |

Asked: For the record Cl.N#Cc1ccc2[nH]cc(CCCCN3CCN(c4ccc5oc(C(N)=O)cc5c4)CC3)c2c1 [VILAZODONE HYDROCHLORIDE] , what value of Total Cell Count is listed for U2OS?
Given back: 120

Asked: Try this compound next: `OC1(c2ccc(Cl)cc2)CCN(Cc2c[nH]c3ccccc23)CC1`
Given back: 119

Asked: Param item: `Cc1nc(-c2ccc(-c3ccc(C(=O)N4CCc5cc6c(cc54)C4(CCN(C)CC4)CO6)cc3)c(C)c2)no1`
Given back: 152

Asked: Cool, now `CN(C)C(=O)/C(C#N)=C/c1ccc(-c2nc3cnc4[nH]ccc4c3n2C2CCCCC2)o1`
Given back: 133

Asked: Record: `CC[C@H](C)C(=O)O[C@H]1C[C@@H](C)C=C2C=C[C@H](C)[C@H](CC[C@@H]3C[C@@H](O)CC(=O)O3)[C@H]21`
Given back: 144

====

# System: Fibroblast
# test-name: Multiplex assay against human fibroblast
# Type: toxicity, cell-based
# setup-conditions: 48 h, 10 µM, compound concentration 10 uM, replicate 1
value-type: Population Mitochondria Different-Phenotype (%)
Report only the number, with the unit % understood.

| molecule | value-measured |
| --- | --- |
| C=CC(=O)Nc1ccc2ncnc(Nc3ccc(OCc4cccc(F)c4)c(Cl)c3)c2c1.Cc1ccc(S(=O)(=O)O)cc1 | 9 |
| Cc1cc(C)cc(-c2cnc3cc(Cl)c(-c4cccc(O)c4)cc3c2OCCCN)c1 | 7 |
| OC1(c2ccc(Cl)cc2)CCN(Cc2c[nH]c3ccccc23)CC1 | 56 |
| Cc1c(-c2ccc(O)cc2)n(Cc2ccc(OCCN3CCCCCC3)cc2)c2ccc(O)cc12 | 55 |
| COc1cccc([C@@H](C)NCCCc2ccccc2Cl)c1.Cl [TECALCET HYDROCHLORIDE] | 16 |

Asked: Any idea what its Population Mitochondria Different-Phenotype (%) is? The molecule is `C=CC(=O)Nc1cccc(C(=O)Nc2ccc(Nc3cc(-c4[nH]c(SC)nc4C)ccn3)cc2)c1`
Given back: 0

Asked: Item: `Cn1cc(-c2[nH]c3cc(NC(=O)[C@H](N)C4CCCCC4)cc4c3c2C=NNC4=O)cn1`
Given back: 3

Asked: Entry `COc1cc2nccc(Oc3ccc(NC(=O)Nc4cc(C)on4)c(Cl)c3)c2cc1OC.O` please
Given back: 60

Asked: Same again, this time with `CN(C)C(=O)/C(C#N)=C/c1ccc(-c2nc3cnc4[nH]ccc4c3n2C2CCCCC2)o1`
Given back: 11
